- subjectOfTest: Neuronal acetylcholine receptor (Rattus norvegicus) (UniProt P04757+P09483+P12389+P12390+P12392+P43144+Q9JLB5+P12391+P43143+P20420+Q05941)
- assayComment: % Decrease of Nicotinic acetylcholine receptor-bound radioactivity using cytisine as a radioligand.
- Assay type: protein-complex assay
- Parameters: scale not given: the % may be the effect or the level left

compound: COc1cc2c(cc1OC)C1c3[nH]c4ccccc4c3CCN1CC2 (configuration not stated)
displayUnit: %
Activity: -4
--
compound: c1ccc2c(c1)CCN1CCc3c([nH]c4ccccc34)C21 (configuration not stated)
displayUnit: %
Activity: 0
--
compound: c1ccc2c3c([nH]c2c1)C1c2[nH]c4ccccc4c2CCN1CC3
displayUnit: %
Activity: 1
--
compound: CN1CCc2ccccc2Cc2[nH]c3ccccc3c2CC1
displayUnit: %
Activity: -3
--
compound: COc1cc2c(cc1OC)Cc1[nH]c3ccccc3c1CCN(C)CC2
displayUnit: %
Activity: -10
--
compound: C[N+]12CCc3c([nH]c4ccccc34)C1c1[nH]c3ccccc3c1CC2 (configuration not stated)
displayUnit: %
Activity: 3
--
compound: CN1CCc2c([nH]c3ccccc23)Cc2[nH]c3ccccc3c2CC1
displayUnit: %
Activity: -7
